# Study Target: T1, cynomolgus galectin-10-His, YRT isoform (cynomolgus)
# T1 construct: not shown: His tag
# T1 chain: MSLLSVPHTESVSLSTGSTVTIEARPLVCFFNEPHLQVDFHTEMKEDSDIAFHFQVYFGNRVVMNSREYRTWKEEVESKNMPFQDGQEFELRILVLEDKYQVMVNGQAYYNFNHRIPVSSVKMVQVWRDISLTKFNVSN
# Protocol Summary: ELISA, Gal10-His coated at 1 ug/mL, VHH titrated, anti-Myc-HRP
Measured Metric: Bmax (OD values)

• VHH clone 13B06 (VHH, Purified VHH-Myc-His from E. coli; not shown: Myc and His tags of the phagemid vector) VHH: QVQLVESGGGLVQAGGSLRLSCAASGRTFSTYSMAWFRQAPGKEREFVAAITRSGGNTYADSVKGRFTISRDNAKNTVTLQMNSLKPEDTAAYHCAAGGTYSFVPRSYNYWGQGTQVTVSS = 2 OD
• VHH clone 13H07 (VHH, Purified VHH-Myc-His from E. coli; not shown: Myc and His tags of the phagemid vector) VHH: QLQLVESGGGLVQAGGSLRLSCVASGRTFSTYAMDWFRQAPGKEREFVAAISWHSAIYYADAVKGRFTISRDNGKNTMYLQMNNLKPEDTAVYFCAAALRYRFNPSAMEYWGKGTLVTVSS = 3.1 OD
• VHH clone 13D12 (VHH, Purified VHH-Myc-His from E. coli; not shown: Myc and His tags of the phagemid vector) VHH: QLQLVESGGGLVQAGDSLRLSCAASGRTFSSYHMMWFRQAPGKEREFVAALAWRGGTYCANSVKGRCTISRDNAQDTVYLQMNSLKPEDTAVYFCAASRRYVFDPSAMDYWAKGTLVTVSS = 2.4 OD
• VHH clone 13G12 (VHH, Purified VHH-Myc-His from E. coli; not shown: Myc and His tags of the phagemid vector) VHH: QLQVVESGGGLVQAGGSLRLSCAASSSAYSMGWFRQAPGKEREFVAVISWSGGSHYDDSVKGRFTISRDGAKNTVYLQMNSLKPEDTAVYYCAVGTLYSFRYRDYDYWGQGTQVTVSS = 3.1 OD
